biological target: Tyrosine-protein kinase ABL1 (Homo sapiens, UniProt P00519); assay: Inhibition of ABL Lys1 labeling site in human Huh-7 cell lysate at 1 uM by KiNativ Profiling analysis relative to control; assay type: subcellular
Sequence (P00519 whole entry): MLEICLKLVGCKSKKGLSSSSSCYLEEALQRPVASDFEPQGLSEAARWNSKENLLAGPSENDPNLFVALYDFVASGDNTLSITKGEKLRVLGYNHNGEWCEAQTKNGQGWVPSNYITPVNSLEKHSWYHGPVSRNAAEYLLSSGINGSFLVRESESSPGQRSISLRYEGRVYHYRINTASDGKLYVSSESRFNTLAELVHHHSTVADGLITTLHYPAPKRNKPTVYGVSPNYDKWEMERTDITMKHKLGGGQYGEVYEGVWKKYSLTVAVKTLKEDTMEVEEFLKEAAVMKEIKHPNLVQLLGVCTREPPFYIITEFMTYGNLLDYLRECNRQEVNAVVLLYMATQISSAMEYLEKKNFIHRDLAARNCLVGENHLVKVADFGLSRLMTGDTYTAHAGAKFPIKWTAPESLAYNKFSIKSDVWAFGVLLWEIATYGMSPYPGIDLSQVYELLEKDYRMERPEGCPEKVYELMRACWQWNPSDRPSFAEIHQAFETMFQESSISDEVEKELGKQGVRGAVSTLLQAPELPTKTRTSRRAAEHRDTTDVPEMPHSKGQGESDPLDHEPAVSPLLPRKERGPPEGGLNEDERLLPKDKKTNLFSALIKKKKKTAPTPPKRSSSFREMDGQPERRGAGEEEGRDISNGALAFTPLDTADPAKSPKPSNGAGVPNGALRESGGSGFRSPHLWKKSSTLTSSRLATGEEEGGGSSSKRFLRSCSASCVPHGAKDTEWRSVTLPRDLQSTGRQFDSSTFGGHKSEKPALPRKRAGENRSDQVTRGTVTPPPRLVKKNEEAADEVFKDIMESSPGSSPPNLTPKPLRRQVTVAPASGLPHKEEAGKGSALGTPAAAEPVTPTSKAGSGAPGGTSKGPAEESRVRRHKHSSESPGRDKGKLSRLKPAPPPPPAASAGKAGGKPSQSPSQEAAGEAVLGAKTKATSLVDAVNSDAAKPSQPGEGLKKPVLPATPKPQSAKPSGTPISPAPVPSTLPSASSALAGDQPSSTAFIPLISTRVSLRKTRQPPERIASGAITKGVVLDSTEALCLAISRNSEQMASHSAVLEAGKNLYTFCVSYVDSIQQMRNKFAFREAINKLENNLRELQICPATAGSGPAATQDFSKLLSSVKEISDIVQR
// reported inhibition per item
measure: inhibition (%)

                                    compound                               test_target  relation_operator  test_result
 0  COc1c(/C=C/c2cc(C(=O)Nc3ccc(OC4CCN(C)CC4)c(C(F)(F)F)c3)ccc2C)cnc2[nH]ccc12  Tyrosine-protein kinase ABL1 (Homo sapiens, UniProt P00519)                  >           85
 1  CCN1CCN(Cc2ccc(NC(=O)c3cccc(CCc4cnc5[nH]ccc5c4OC)c3)cc2C(F)(F)F)CC1  Tyrosine-protein kinase ABL1 (Homo sapiens, UniProt P00519)                  =           83
 2  COc1c(/C=C/c2cc(C(=O)Nc3ccc(CN4CCC(N(C)C)C4)c(C(F)(F)F)c3)ccc2C)cnc2[nH]ccc12 (stereo not given)  Tyrosine-protein kinase ABL1 (Homo sapiens, UniProt P00519)                  =         47.5
 3  COc1c(CCc2cc(C(=O)Nc3cc(-n4cnc(C)c4)cc(C(F)(F)F)c3)ccc2C)cnc2[nH]ccc12  Tyrosine-protein kinase ABL1 (Homo sapiens, UniProt P00519)                  =         80.4
 4  CNc1cc(Oc2cc(C(=O)Nc3cc(N4CCN(C)CC4)cc(C(F)(F)F)c3)ccc2C)ncn1  Tyrosine-protein kinase ABL1 (Homo sapiens, UniProt P00519)                  =         48.4
 5  CNc1cc(Oc2cc(C(=O)Nc3cc(-n4cnc(C)c4)cc(C(F)(F)F)c3)ccc2C)ncn1  Tyrosine-protein kinase ABL1 (Homo sapiens, UniProt P00519)                  =         51.8
 6  CCN1CCN(c2ccc(NC(=O)c3ccc(C)c(CCc4cnc5[nH]ccc5c4OC)c3)cc2C(F)(F)F)CC1  Tyrosine-protein kinase ABL1 (Homo sapiens, UniProt P00519)                  =         75.2
 7  CCN1CCN(Cc2ccc(NC(=O)c3ccc(C)c(Oc4cc(NC)ncn4)c3)cc2C(F)(F)F)CC1  Tyrosine-protein kinase ABL1 (Homo sapiens, UniProt P00519)                  =         58.4
 8  CCN1CCN(Cc2ccc(NC(=O)c3ccc(C)c(/C=C/c4cnc5[nH]ccc5c4OC)c3)cc2)CC1  Tyrosine-protein kinase ABL1 (Homo sapiens, UniProt P00519)                  >           80
 9  CCN1CCN(Cc2ccc(NC(=O)c3cccc(/C=C/c4cnc5[nH]ccc5c4OC)c3)cc2C(F)(F)F)CC1  Tyrosine-protein kinase ABL1 (Homo sapiens, UniProt P00519)                  =           82
10  CCN1CCN(Cc2ccc(NC(=O)c3ccc(C)c(OCc4cnc5[nH]ccc5c4OC)c3)cc2C(F)(F)F)CC1  Tyrosine-protein kinase ABL1 (Homo sapiens, UniProt P00519)                  >           80
11  CCN1CCN(Cc2ccc(NC(=O)c3ccc(C)c(CCc4cnc5[nH]ccc5c4OC)c3)cc2C(F)(F)F)CC1  Tyrosine-protein kinase ABL1 (Homo sapiens, UniProt P00519)                  =         77.2
12  CCN1CCN(Cc2ccc(NC(=O)c3ccc(C)c(Oc4ncnc5cc(OC)c(OC)cc45)c3)cc2C(F)(F)F)CC1  Tyrosine-protein kinase ABL1 (Homo sapiens, UniProt P00519)                  =         78.8
13  CCN1CCN(Cc2ccc(C(=O)Nc3cccc(CCc4cnc5[nH]ccc5c4OC)c3)cc2C(F)(F)F)CC1  Tyrosine-protein kinase ABL1 (Homo sapiens, UniProt P00519)                  >           80
14  COc1c(/C=C/c2cc(C(=O)Nc3cccc(C(C)(C)C#N)c3)ccc2C)cnc2[nH]ccc12  Tyrosine-protein kinase ABL1 (Homo sapiens, UniProt P00519)                  =         71.5

====

// reported pIC50 per item
molecular target: Serine/threonine-protein kinase B-raf (Homo sapiens); experiment: Inhibition of BRAF (unknown origin) Lys2 labeling site by KiNativ Profiling analysis
Sequence (P15056 whole entry): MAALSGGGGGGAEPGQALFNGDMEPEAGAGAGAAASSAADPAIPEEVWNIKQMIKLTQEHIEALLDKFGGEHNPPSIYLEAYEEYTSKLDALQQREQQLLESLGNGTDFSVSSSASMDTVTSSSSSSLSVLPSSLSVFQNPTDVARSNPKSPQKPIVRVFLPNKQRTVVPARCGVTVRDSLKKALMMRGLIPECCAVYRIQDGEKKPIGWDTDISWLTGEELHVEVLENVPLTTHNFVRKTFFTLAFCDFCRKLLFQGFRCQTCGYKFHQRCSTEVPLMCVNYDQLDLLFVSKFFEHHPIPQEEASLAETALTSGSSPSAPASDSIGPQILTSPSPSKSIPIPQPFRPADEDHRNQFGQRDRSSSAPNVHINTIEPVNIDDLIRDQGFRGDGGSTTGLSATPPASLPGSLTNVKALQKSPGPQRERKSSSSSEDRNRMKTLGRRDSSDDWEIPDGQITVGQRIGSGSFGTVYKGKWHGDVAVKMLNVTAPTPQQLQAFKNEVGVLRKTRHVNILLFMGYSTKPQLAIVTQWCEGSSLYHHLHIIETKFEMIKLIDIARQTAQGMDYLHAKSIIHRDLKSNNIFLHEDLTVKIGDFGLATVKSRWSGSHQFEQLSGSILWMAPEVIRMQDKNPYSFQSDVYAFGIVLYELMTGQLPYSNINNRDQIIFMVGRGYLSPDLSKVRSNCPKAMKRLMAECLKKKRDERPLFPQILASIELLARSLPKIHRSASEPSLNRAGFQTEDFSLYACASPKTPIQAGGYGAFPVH
pIC50: −log10 of the molar value.
measure: pIC50

                                 smiles_str  test_result
0  CCN1CCN(Cc2ccc(NC(=O)c3ccc(C)c(Oc4ccnc5[nH]ccc45)c3)cc2C(F)(F)F)CC1       < 5.00
1  CCN1CCN(Cc2ccc(NC(=O)c3ccc(C)c(/C=C/c4cnc5[nH]ccc5c4OC)c3)cc2C(F)(F)F)CC1       < 5.00

====

Biological target: Mitogen-activated protein kinase kinase kinase 7 (Homo sapiens) (UniProt O43318)
Sequence (whole entry): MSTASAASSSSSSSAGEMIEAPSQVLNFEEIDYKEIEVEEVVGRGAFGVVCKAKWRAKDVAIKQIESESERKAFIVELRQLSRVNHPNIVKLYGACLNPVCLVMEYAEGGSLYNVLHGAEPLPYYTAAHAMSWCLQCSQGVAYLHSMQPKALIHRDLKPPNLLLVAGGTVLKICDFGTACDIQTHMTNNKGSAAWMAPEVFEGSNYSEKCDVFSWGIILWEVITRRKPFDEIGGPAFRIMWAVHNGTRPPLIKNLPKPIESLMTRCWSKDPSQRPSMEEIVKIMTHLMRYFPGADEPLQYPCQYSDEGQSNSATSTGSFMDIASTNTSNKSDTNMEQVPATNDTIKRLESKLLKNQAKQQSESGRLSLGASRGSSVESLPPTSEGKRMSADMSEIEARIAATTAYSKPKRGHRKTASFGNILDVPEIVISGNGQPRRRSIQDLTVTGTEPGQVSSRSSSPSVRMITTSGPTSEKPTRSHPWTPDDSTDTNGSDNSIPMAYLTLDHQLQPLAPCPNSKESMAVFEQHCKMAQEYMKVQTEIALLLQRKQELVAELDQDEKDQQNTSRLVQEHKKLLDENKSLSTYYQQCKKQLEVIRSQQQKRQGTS
Test: Inhibition of TAK1 Lys2 labeling site in human A-375 cells at 0.5 uM by KiNativ Profiling analysis relative to control
Assay type: cell-based
// reported inhibition per item
measure: inhibition (%)

>>> df
                                 smiles_str  unit  test_result
0  CCN1CCN(Cc2ccc(NC(=O)c3ccc(C)c(Oc4ncnc5cc(OC)c(OC)cc45)c3)cc2C(F)(F)F)CC1     %         83.7
1  CCN1CCN(Cc2ccc(NC(=O)c3ccc(C)c(Oc4cc(NC)ncn4)c3)cc2C(F)(F)F)CC1     %         78.5
2  CCN1CCN(Cc2ccc(NC(=O)c3ccc(C)c(OCc4cnc5[nH]ccc5c4OC)c3)cc2C(F)(F)F)CC1     %         59.6
3  CCN1CCN(Cc2ccc(NC(=O)c3cccc(Oc4ccnc5[nH]ccc45)c3)cc2C(F)(F)F)CC1     %         75.6

====

// reported inhibition per item
target: Mitogen-activated protein kinase kinase kinase 20 (Homo sapiens); test: Inhibition of ZAK Lys1 labeling site in human Huh-7 cell lysate at 1 uM by KiNativ Profiling analysis relative to control; format: subcellular
Sequence (Q9NYL2 2-800 limits assumed): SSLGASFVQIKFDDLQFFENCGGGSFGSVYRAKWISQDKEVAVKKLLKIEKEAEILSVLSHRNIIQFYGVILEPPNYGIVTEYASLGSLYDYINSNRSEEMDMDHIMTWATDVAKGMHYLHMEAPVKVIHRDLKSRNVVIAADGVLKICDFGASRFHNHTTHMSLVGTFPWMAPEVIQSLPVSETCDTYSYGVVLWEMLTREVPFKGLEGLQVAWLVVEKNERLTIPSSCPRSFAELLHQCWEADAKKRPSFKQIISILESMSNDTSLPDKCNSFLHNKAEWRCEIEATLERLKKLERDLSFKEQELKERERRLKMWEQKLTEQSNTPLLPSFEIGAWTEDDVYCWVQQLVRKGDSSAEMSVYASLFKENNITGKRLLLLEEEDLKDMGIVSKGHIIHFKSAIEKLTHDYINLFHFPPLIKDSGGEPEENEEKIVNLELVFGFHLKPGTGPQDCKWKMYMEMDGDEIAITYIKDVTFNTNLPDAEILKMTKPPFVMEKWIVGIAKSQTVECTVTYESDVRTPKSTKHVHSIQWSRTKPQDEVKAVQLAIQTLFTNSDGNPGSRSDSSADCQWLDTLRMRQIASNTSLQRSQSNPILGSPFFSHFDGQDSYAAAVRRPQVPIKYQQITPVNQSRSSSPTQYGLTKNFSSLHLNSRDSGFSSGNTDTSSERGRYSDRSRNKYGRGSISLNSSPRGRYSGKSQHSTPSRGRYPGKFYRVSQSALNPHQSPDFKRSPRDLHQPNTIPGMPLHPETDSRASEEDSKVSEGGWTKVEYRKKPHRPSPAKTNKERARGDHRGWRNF
measure: inhibition (%)

In [3]: df
Out[3]:
                                  smiles_str  relation_operator  test_result
 0  COc1c(CCc2cc(C(=O)Nc3cc(-n4cnc(C)c4)cc(C(F)(F)F)c3)ccc2C)cnc2[nH]ccc12                  =         95.6
 1  CCN1CCN(Cc2ccc(NC(=O)c3ccc(C)c(Oc4ccnc(C(=O)NC)c4)c3)cc2C(F)(F)F)CC1                  =         82.7
 2  CCN1CCN(Cc2ccc(NC(=O)c3ccc(C)c(Oc4ncnc5[nH]ncc45)c3)cc2C(F)(F)F)CC1                  =         95.2
 3  COc1c(/C=C/c2cc(C(=O)Nc3cccc(C(C)(C)C#N)c3)ccc2C)cnc2[nH]ccc12                  =         95.8
 4  CNc1cc(Oc2cc(C(=O)Nc3cc(-n4cnc(C)c4)cc(C(F)(F)F)c3)ccc2C)ncn1                  =         43.6
 5  CCN1CCN(Cc2ccc(C(=O)Nc3cccc(CCc4cnc5[nH]ccc5c4OC)c3)cc2C(F)(F)F)CC1                  =         78.4
 6  CCN1CCN(Cc2ccc(NC(=O)c3cccc(CCc4cnc5[nH]ccc5c4OC)c3)cc2C(F)(F)F)CC1                  =           78
 7  CCN1CCN(Cc2ccc(NC(=O)c3ccc(C)c(CCc4cnc5[nH]ccc5c4OC)c3)cc2C(F)(F)F)CC1                  >           96
 8  CNc1cc(Oc2cc(C(=O)Nc3cc(N4CCN(C)CC4)cc(C(F)(F)F)c3)ccc2C)ncn1                  =         31.8
 9  CCN1CCN(Cc2ccc(NC(=O)c3ccc(C)c(Oc4ccnc(NC)n4)c3)cc2C(F)(F)F)CC1                  =         89.6
10  CCN1CCN(Cc2ccc(NC(=O)c3cccc(/C=C/c4cnc5[nH]ccc5c4OC)c3)cc2C(F)(F)F)CC1                  =         75.3
